Assignment: determine reported % increase in LDL Uptake for the given compounds.
molecular target: PCSK9 (Homo sapiens, UniProt Q8NBP7); assay: BODIPY-LDL uptake assay in HepG2 cells; assay type: cell-based; conditions: 30 μM test compound, 5 μg/ml PCSK9, BODIPY-LDL
Sequence (Q8NBP7 153-692): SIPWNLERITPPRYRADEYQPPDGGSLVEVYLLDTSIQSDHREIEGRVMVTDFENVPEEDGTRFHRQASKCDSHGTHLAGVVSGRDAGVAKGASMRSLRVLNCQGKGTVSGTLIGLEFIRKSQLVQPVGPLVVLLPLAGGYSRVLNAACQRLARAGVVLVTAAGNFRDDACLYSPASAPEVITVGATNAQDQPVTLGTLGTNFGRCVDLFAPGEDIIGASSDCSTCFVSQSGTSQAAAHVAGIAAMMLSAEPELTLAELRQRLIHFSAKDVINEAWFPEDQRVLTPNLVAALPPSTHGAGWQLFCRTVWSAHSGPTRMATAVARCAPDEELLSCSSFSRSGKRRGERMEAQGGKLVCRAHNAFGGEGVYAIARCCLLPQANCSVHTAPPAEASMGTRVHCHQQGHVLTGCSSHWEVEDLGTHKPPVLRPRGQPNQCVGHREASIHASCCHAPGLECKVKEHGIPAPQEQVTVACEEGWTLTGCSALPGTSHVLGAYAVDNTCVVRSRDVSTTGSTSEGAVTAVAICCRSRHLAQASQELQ
Answers are plain numbers, in %.

COC1(c2ccc(C(=O)N3CC4CN(c5ccc(C(F)(F)F)cn5)CC4C3)cc2)COC1 (stereo not shown) [Example 209] :: 21
COC1(c2cccc(C(=O)N3CCN(c4ccc(C(F)(F)F)cn4)CC3)c2)COC1 [Example 221] :: 66
O=C(c1ccc(C2(O)CCNCC2)cc1)N1CCC(c2ccc(C(F)(F)F)cc2)CC1 [Example 141] :: 28

# next compound below
Task item: Value lookup for % increase in LDL Uptake; key = O=C(c1ccc(C2(O)COC2)cc1)N1CCC2(CC1)CCN(c1ccc(C(F)(F)F)cc1)CC2 [Example 99]
Reply: 0

====

Assignment: determine reported % increase in LDL Uptake for the given compounds.
biological target: PCSK9 (Homo sapiens); assay: BODIPY-LDL uptake assay in HepG2 cells; assay type: cell-based; conditions: 10 μM test compound, 5 μg/ml PCSK9, BODIPY-LDL
Answers are plain numbers, in %.

# example entries with known answers
O=C(c1ccc(C2(O)COC2)cc1)N1Cc2cn(-c3ccc(C(F)(F)F)cc3)cc2C1 :: 90
O=C(c1cccc(C2(O)COC2)c1)N1CCN(c2ccc(C(F)(F)F)cn2)CC1 :: 31

I would be grateful if you could provide % increase in LDL Uptake for each of the following entries.
1. O=C(c1cccc(C2(OCC3CC3)COC2)c1)N1CC2CN(c3ccc(C(F)(F)F)cc3)CC2C1 (stereo not shown)
2. CN1CCN(c2cc(NC(=O)C3CCN(c4ccc(C(F)(F)F)cc4)CC3)cc(C3(O)COC3)c2)CC1
3. O=C(c1cncc(C2(O)COC2)c1)N1CCC(c2ccc(C(F)(F)F)cc2)CC1

Reply:
[19, 0, 45]

I would be grateful if you could provide % increase in LDL Uptake for each of the following entries.
1. COC1(c2ccc(C(=O)N3Cc4cn(-c5ccc(C(F)(F)F)cc5)nc4C3)cc2)COC1
2. O=C(Nc1cccc(C2(O)COC2)c1)N1CC2CN(c3ccc(C(F)(F)F)cc3)CC2C1 (stereo not shown)
3. Cn1nc(-c2ccc(C(F)(F)F)cc2)c2c1CN(C(=O)c1ccc(C3(O)COC3)cc1)C2
4. O=C(c1ccc(C2(O)COC2)cc1)N1CCCN(c2ccc(C(F)(F)F)cc2)CC1
5. COc1cc(C2CN(c3ccc(C(F)(F)F)cc3)CCN2C(=O)c2ccc(C3(O)COC3)cc2)ccn1 (stereo not shown)
6. O=C(c1cccc(C2(O)COC2)c1)N1CCC(c2ccccc2C(F)(F)F)CC1

Reply:
39
37
7
117
27
16

I would be grateful if you could provide % increase in LDL Uptake for each of the following entries.
1. COC1(c2ccc(C3(O)CCN(c4ccc(C(F)(F)F)cc4)CC3)cc2)COC1
2. O=C(c1cccc(C2(O)COC2)c1)N1CCC2(CC1)CCN(c1ccc(C(F)(F)F)cc1)CC2
3. O=C(c1cccc(C2(O)COC2)c1)N1CCC(c2ccc(C(F)(F)F)cc2)CC1
4. CCOC1(c2ccc(C(=O)N3CCC(c4ccc(C(F)(F)F)c(F)c4)CC3)cc2)COC1

Reply:
[8, 0, 189, 25]

Task item: Value lookup for % increase in LDL Uptake; key = O=C(c1ccc(C2(O)CS(=O)(=O)C2)cc1)N1CC2CN(c3ccc(C(F)(F)F)cc3)CC2C1 (stereo not shown)
Reply: 32

====

target: PCSK9 (Homo sapiens, UniProt Q8NBP7); assay: BODIPY-LDL uptake assay in HepG2 cells; type: cell-based; conditions: 10 μM test compound, 5 μg/ml PCSK9, BODIPY-LDL
QUANTITY: % increase in LDL Uptake (%)
One number for each entry, in %.

COC1(c2ccc(NC(=O)C3CCN(c4ccc(C(F)(F)F)cc4)CC3)cc2)COC1 [Example 60] :: 7
O=C(c1cccc(C2(O)COC2)c1)N1CCC(c2ccc(C(F)(F)F)c(F)c2)CC1 [Example 121] :: 22

# next molecule below
Task item: Value lookup for % increase in LDL Uptake; key = COC1(c2ccc(C(=O)N3CC4=C(C3)CN(c3ccc(C(F)(F)F)cc3)C4)cc2)COC1 [Example 202]
Reply: 0

====

molecular target: UniProt:Q8NBP7; experiment: BODIPY-LDL uptake assay in HepG2 cells; assay type: cell-based; conditions: 30 μM test compound, 5 μg/ml PCSK9, BODIPY-LDL
QUANTITY: % increase in LDL Uptake (%)
One number for each entry, in %.

# example entries with known answers
O=C(c1ccc(C2(O)COC2)cc1)N1CC2CN(c3ccc(C(F)(F)F)cc3)CC2C1 (centres unmarked) :: 116
O=C(c1ccc(C2(O)COC2)cc1)N1CC2CC(O)(c3ccc(C(F)(F)F)cc3)CC2C1 (centres unmarked) :: 101
CSc1ccc(C2=CC3CN(C(=O)c4ccc(C5(O)COC5)cc4)CC3C2)cc1 (centres unmarked) :: −1
O=S(=O)(c1ccc(C2(O)COC2)cc1)N1CCN(c2ccc(C(F)(F)F)cc2)CC1 :: 128
COC1(c2cccc(C(=O)N3CC4CN(c5ccc(C(F)(F)F)cn5)CC4C3)c2)COC1 (centres unmarked) :: 189

I would be grateful if you could provide % increase in LDL Uptake for each of the following entries.
1. COC1(c2ccc(C(=O)N3CC4CC(OC)(c5ccc(C(F)(F)F)cc5)CC4C3)cc2)COC1 (centres unmarked)
2. CCOC1(c2ccc(C(=O)N3CCC(c4ccc(C(F)(F)F)cc4)CC3)cc2)CSC1

Reply:
1. 64
2. 11

====

Assignment: determine reported % increase in LDL Uptake for the given molecules.
target: PCSK9 (Homo sapiens); assay: BODIPY-LDL uptake assay in HepG2 cells; type: cell-based; conditions: 30 μM test compound, 5 μg/ml PCSK9, BODIPY-LDL

# example entries with known answers
O=C(Nc1ccc(C2(O)COC2)cc1)C1CCN(c2ccc(C(F)(F)F)cc2)CC1 :: 34%
O=C(O)COC1(c2ccc(C(=O)N3CC4CN(c5ccc(C(F)(F)F)cc5)CC4C3)cc2)COC1 (centres unmarked) :: 33%
COC1(c2ccc(C3(O)CCN(c4ccc(C(F)(F)F)cc4)CC3)cc2)COC1 :: 0%
O=C(c1cccc(C2(O)COC2)c1)N1CCc2scc(-c3ccc(C(F)(F)F)cc3)c2C1 :: 68%

I would be grateful if you could provide % increase in LDL Uptake for each of the following entries.
1. O=C(c1ccc(C2(O)COC2)cc1)N1CCC(c2ccc(C(F)(F)F)cc2)CC1
2. COC1(c2ccc(C(=O)N3CCC(c4ccc(C(F)(F)F)cc4)CC3)cc2)CCNC1 (centres unmarked)

Reply:
130%
46%

I would be grateful if you could provide % increase in LDL Uptake for each of the following entries.
1. COCCOC1(c2ccc(C(=O)N3CC4CN(c5ccc(C(F)(F)F)cc5)CC4C3)cc2)COC1 (centres unmarked)
2. O=C(c1ccc(C2(O)CSC2)cc1)N1CCC(c2ccc(C(F)(F)F)cc2)CC1

Reply:
["116%", "0%"]

====

molecular target: PCSK9 (Homo sapiens, UniProt Q8NBP7); test: BODIPY-LDL uptake assay in HepG2 cells; assay type: cell-based; settings: 10 μM test compound, 5 μg/ml PCSK9, BODIPY-LDL
Give rule met when the value for % increase in LDL Uptake is at least 30%. Give rule not met when it is less.

Previously resolved entries follow.
COC1(c2ccc(C(=O)N3CCN(c4ccc(C(F)(F)F)cn4)CC3)cc2)COC1 :: rule not met
CCOC1(c2ccc(C(=O)N3CCN(c4ccc(C(F)(F)F)cn4)CC3)cc2)COC1 :: rule met
COC1(c2ccc(C(=O)N3CCC(c4ccc(C(F)(F)F)c(-n5cnc(C)c5)c4)CC3)cc2)COC1 :: rule not met

Task item: Given O=C(c1ccc(C2(O)COC2)cc1)N1CCC(c2ccc(C(F)(F)F)cc2)C1 (centres unmarked) , state whether its % increase in LDL Uptake is at least 30%.
Reply: rule met

Task item: Given COC1(c2ccc(C(=O)N3CCCC(c4ccc(C(F)(F)F)cc4)C3)cc2)COC1 (centres unmarked) , state whether its % increase in LDL Uptake is at least 30%.
Reply: rule met

====

biological target: PCSK9 (Homo sapiens, UniProt Q8NBP7); assay: BODIPY-LDL uptake assay in HepG2 cells; type: cell-based; details: 30 μM test compound, 5 μg/ml PCSK9, BODIPY-LDL
Assignment: determine reported % increase in LDL Uptake for the given molecules.
Note: state the figure and append the unit.

O=C(c1ccc(C2(O)COC2)cc1)N1CC=C(c2ccc(C(F)(F)F)cc2)CC1 :: 94%

I would be grateful if you could provide % increase in LDL Uptake for each of the following entries.
1. O=C(c1cccc(C2(O)COC2)c1)N1CCN(c2ccc(C(F)(F)F)cn2)CC1
2. CCOC1(c2ccc(C(=O)N3CCC(c4ccc(C(F)(F)F)cc4)CC3)cc2)CCN(C(=O)OC(C)(C)C)CC1
3. CC(C)(CCCCCOC1(c2ccc(C(=O)N3CCC(c4ccc(C(F)(F)F)cc4)CC3)cc2)COC1)C(=O)O

Reply:
["56%", "16%", "31%"]
